System: HCT-116 colon
Experiment: NCI tumour cell line growth inhibition, 48 h
MEASURED_PROPERTY: TGI

Field: example entries. Status: answers known.
Entry Nc1c(C(=O)c2cccc(CCS(N)(=O)=O)c2)cnn1-c1ccc(F)cc1 : reported TGI = ?
> 25 µM

Queued: CCOC(=O)CCC1(C(=O)OCC)CCCCC1=O (stereo unspecified)
> 100 µM

Further cases:
Requested field: TGI. Item: CCn1c(C)nn2c(=O)c3ccccc3nc2c1=O
> 100 µM

Continue with CCOC1Oc2ccccc2C(=O)/C1=C/Nc1ccc(C(C)=O)cc1 (stereo unspecified)
> 100 µM

----------
System: SR leukemia
Experiment: NCI tumour cell line growth inhibition, 48 h
MEASURED_PROPERTY: TGI

Can you look up the measured TGI of Nc1c2c(nc3ccccc13)-c1ccccc1CC2 for me?
9.31 µM

What do we get for Cc1c(C(=O)CC(=O)C(=O)Nc2ccccc2C(F)(F)F)[n+](=O)c2ccccc2n1[O-] ?
26.6 µM

Also check COC(=O)C1SC(SC)=NC12c1ccccc1Nc1ccccc12 (stereo unspecified)
53.4 µM

What do you get for Cc1ccc(N=NC(=Nc2ccccc2)c2ccc(N(CCC#N)CCC#N)cc2)cc1 ?
> 100 µM

Others:
Value lookup for TGI; key = O=C1NC(=NCCc2cccc(F)c2)S/C1=C\c1ccc2ncccc2c1
> 25 µM

What about this compound? C=CCN1C[C@H](C)N([C@H](c2ccc(C(=O)NC(CC)CC)cc2)c2cccc(OC)c2)C[C@H]1C
44.4 µM

----------
Test system: ACHN renal
Assay: NCI tumour cell line growth inhibition, 48 h
Where a SMILES comes first, the peptide text is derived from it. [ ]: non-standard residue; d: D form. The star is where a group is joined. NMeAc5c = CNC1(C(=O)O)CCCC1; Boc = CC(C)(C)OC(=O)*; OBn = c1ccc(CO*)cc1
MEASURED_PROPERTY: TGI

// known answers, use as guide
State its TGI on ACHN renal: COC(=O)c1c(C)cccc1C1CN=NC12Cc1ccc(C)cc1C2=O (centres undefined)
> 100 µM

Moving on to COC(CCC[N+](C)(C)C)CC[N+](C)(C)C (centres undefined)
> 100 µM

Also need CN(C(=O)C(Cc1ccccc1)NC(=O)OC(C)(C)C)C1(C(=O)NC(Cc2ccccc2)C(=O)OCc2ccccc2)CCCC1 (stereo not drawn) (Boc-Phe-[NMeAc5c]-Phe-OBn; configuration not given here) , thanks.
> 100 µM

Follow-up item: Cc1ccc(S(=O)(=O)OC[C@@H]2CO2)cc1
> 100 µM

Now give it for O=C1C=CC(=O)c2c1ccc1c3ccccc3n(CCCCCCCCCCCCn3c4ccccc4c4ccc5c(c43)C(=O)C=CC5=O)c21 too.
> 100 µM

One more compound: C=CC(=O)Nc1cc(Nc2ncc(C(=O)OC(C)C)c(-c3cn(C)c4ccccc34)n2)c(OC)cc1N(C)CCN(C)C
12.1 µM

More entries:
Reported TGI for ACHN renal, given Cc1ccc(C(=O)O)cc1S(=O)(=O)Nn1cnc2ccc(S(=O)(=O)Nc3ccccc3C(=O)O)cc2c1=O ?
> 100 µM

Check CCC(C(=O)O)c1ccc(OC)cc1 (centres undefined) too.
> 100 µM

Input N#Cc1c(N2CCCC2)ncn(-c2ccccc2)c1=O
> 100 µM

Note, next up: O=C(O)CCC(NC(=O)c1ccc(Nc2nc3ccccc3nc2-c2cccs2)cc1)C(=O)O (centres undefined)
> 100 µM

Please do the same for O=C1CC(NC(=O)C(F)(F)F)c2c(Br)sc(N3CCNCC3)c21 (centres undefined) as well.
> 100 µM

And for COc1cnc2c(c1)C(=O)c1c-2n(CCCN2CCOCC2)c(=O)c2cc(F)ccc12 ?
0.6 µM

# repeat for COc1cc2cc(OC)c3cc4c(cc3c2c(OC)c1OC)OCO4
> 100 µM
